test system: K-562; assay: In vitro cytotoxic activity, MTT assay, K-562; assay type: cell-based; details: Homo sapiens, K562, 72 hours
pIC50: −log10 of the molar value.
pIC50 listing for selected molecules.
experimentalEndpoint: pIC50

[
  {
    "smiles": "CC(C)n1nnc2c(Nc3cccc(Cl)c3)nc(NCCCO)nc21",
    "targetDesc": "K-562",
    "experimentalEndpoint": "pIC50",
    "testResult": "< 4.00"
  },
  {
    "smiles": "CC(C)n1nnc2c(Nc3cccc(Cl)c3)nc(NCCN)nc21",
    "targetDesc": "K-562",
    "experimentalEndpoint": "pIC50",
    "testResult": "< 4.00"
  },
  {
    "smiles": "CC(C)n1nnc2c(Nc3cccc(Cl)c3)nc(N(CCO)CCO)nc21",
    "targetDesc": "K-562",
    "experimentalEndpoint": "pIC50",
    "testResult": "< 4.00"
  },
  {
    "smiles": "CC(C)n1nnc2c(Nc3cccc(Cl)c3)nc(NCCCN)nc21",
    "targetDesc": "K-562",
    "experimentalEndpoint": "pIC50",
    "testResult": "< 4.00"
  },
  {
    "smiles": "CC(C)n1nnc2c(Nc3cccc(Cl)c3)nc(NCCO)nc21",
    "targetDesc": "K-562",
    "experimentalEndpoint": "pIC50",
    "testResult": "< 4.00"
  },
  {
    "smiles": "CC[C@H](CO)Nc1nc(Nc2cccc(Cl)c2)c2nnn(C(C)C)c2n1",
    "targetDesc": "K-562",
    "experimentalEndpoint": "pIC50",
    "testResult": "< 4.00"
  }
]

Reference for the values: patent US7816350B2
